Measured Selectivity index (HaCat LC50 / MIC) accompanies every entry in the list below.
- Test system: P. aeruginosa PAO1
- Test parameters: P. aeruginosa PAO1 over HaCat cells
Ends that are not written are not given here.
Form rule: numeric answer, no unit written next to it.

Entry under review: GRVWRWIRSTARRLWN-NH2 [Opis16aKR] . Reported Selectivity index (HaCat LC50 / MIC)?
32.9

Entry under review: GRVWRWIKSTAKKLWN-NH2 [Opis16aNterKR] . Reported Selectivity index (HaCat LC50 / MIC)?
34.6

Entry under review: GKVWKWIKSTAKKLWN-NH2 [Opis16aD5K] . Reported Selectivity index (HaCat LC50 / MIC)?
18.5

Please turn your attention to the following entry.
Entry under review: GKVWKWIKSTARRLWN-NH2 [Opis16aCterKR] . Reported Selectivity index (HaCat LC50 / MIC)?
45.2
